- Test system: MS2 coat protein
- METHOD: apparent KD of MS2 coat protein; designed switch direction (-1 OFF switch, 1 ON switch): -1; higher = weaker reporter binding
- CONDITION_DETAILS: input ligand: FMN 200 uM
ATTRIBUTE_MEASURED: apparent KD of MS2 coat protein (µM)
Numeric answer only, unit µM assumed.

These solved cases illustrate the format of a correct answer.
# SEQUENCE, apparent KD of MS2 coat protein [µM]
measured = [
    ("AAAAAAAGACAAGAGGAGAUUCGUCUUAAAAAUCCUCAAACAUGAGGAUCACCCAUGUAAAAUGAUCGAAAGAUCAA [Mat - Sensor v2 - ver2 - JL mod - D39] (Eterna round: R96, puzzle: Sensor v2, turn-off variant 2)", 0.0257),
    ("CGUGGACAUAACAAGCUUUACAUGAGGAUCACCCAUGUGAUCAUGCUCGUCUUAUGGUCCACGAAUUAAUUAAUUAG [Stov1/6-C2] (Eterna round: R97, puzzle: Sensor, turn-off variant 1)", 0.0192),
    ("AGAUGCUCGAGUCAACAUGAGGAUCACCCAUGUACAGUUAAUGAGGAUAUCUGAGACAAAUAGUAGGAGAAGGCGUGAACAUGA [Ex NG3 #12] (Eterna round: R96, puzzle: Exclusion NG 3)", 0.0321),
    ("GUUGUUACUGAGGAUAUUAUUUUAUUCGAUUGAUAAGAAGGCAGUACAUGAGGAUCACCCAUGUGGGUAGUUAG [Polaris21] (Eterna round: R97, puzzle: Exclusion 6)", 0.27),
    ("UCUGUACAUCCCAAGCAUAACAUGAGGAUCACCCAUGUUGAACAAAACGUCGGUCCUGCUGCUCGUCGAAGGAAUAG [Eternabot (Original) Solution 8] (Eterna round: R97, puzzle: Sensor, turn-off variant 1)", 0.0474),
]

Value sought: apparent KD of MS2 coat protein, system MS2 coat protein, item AGUGUGUGGCAGGAUAUUCUAAUGAUUAGGAGGGAAGAAGGGUCUACAUGAGGAUCACCCAUGUAAGCGGUUGA [Ex6 #39] (Eterna round: R97, puzzle: Exclusion 6) . Result: 0.135

Value sought: apparent KD of MS2 coat protein, system MS2 coat protein, item GAGCACUGCCGAGGAUAUCCACAUGAGGAUCACCCAUGUAGUGAAAAGUCCCAGUAGAACCAAAUGGAGAAGGUGGCAAGAUAU [Eternabot solution 21] (Eterna round: R96, puzzle: Exclusion NG 2) . Result: 0.0232

---

- System: K4 kissing-loop RNA reporter;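 further: bound reporter read as fluorescence of individual clusters on recovered sequencing chips by microscopy, with normalized cluster intensities fitted with a binding model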
- METHOD: apparent KD of K4 kissing-loop reporter; higher = weaker reporter binding
- CONDITION_DETAILS: Eterna round: R107; input ligand: theophylline 20 uM
Assign class by apparent KD of K4 kissing-loop reporter: not lower than 0.2 µM means true; lower than 0.2 µM means false.

A selection of reference data follows.
# SEQUENCE, CATEGORY_LABEL
measured = [
    ("GAGCCAGAAGUUGCUGCGGGUUUCAGAGAUACCAGCCGUAUUGUAGGCCCUUGGCAGCUCGAGUGAUGUUCGAGCCGCUUCUAGC [Inma]", "false"),
    ("CCAGGUUGCCGCAACGACCUGGAUUUUAGGGAGGAUAUCCAGAGCAGGAGAAGGCCCAGUGAUGUUGGGCCUGUGGAGCCCAUAU [Ararensoza]", "false"),
]

Prompt: I'd appreciate it if you could say whether AGAGUUAAUUAGUCUUUUUUUACAUUAAGUCAGGAUAUCGUAUAUUCGAGAAGGGACACAUGCUAGUGAUGUUAGCUAUUUCUCA [JR_Nu_ExcFMNA_Sub019] has apparent KD of K4 kissing-loop reporter at least equal to 0.2 µM.
Completion: false

Prompt: I'd appreciate it if you could say whether GCAGUGAUGUUGCGCGGGUACAGUGGAGUGCGAGGACCGGUACGGCCGCCACUCGUACAGAACUGGCUAAUAUAUGGAUAGGUGA [VII] has apparent KD of K4 kissing-loop reporter at least equal to 0.2 µM.
Completion: false

Prompt: I'd appreciate it if you could say whether AGAGUUAUGCGAGGAUAUGCAGUUAGUACUCAAAGAGUACUAACGCAGAGUGAUGUUCUGUGAAACGCAGAAGGUGCAUAACUCA [Omei KL FMN B SS B v4] has apparent KD of K4 kissing-loop reporter at least equal to 0.2 µM.
Completion: true

Prompt: I'd appreciate it if you could say whether ACACGCAACUAUAGACCAGUGAUGUUGGAACGAGGACCGGUACGGCCGCCACUCGAGCGGACGAUCUACGCCUCUUAUGCUAACG [theeternabot_exclusion_KL_Trp_A_15] has apparent KD of K4 kissing-loop reporter at least equal to 0.2 µM.
Completion: true

Prompt: I'd appreciate it if you could say whether `GGCACUUUUGCUUGGAACCGUCAAGCUCUUUAGGAUAUCUGGAAACAGAGAAGGAAAGACCUACAGAGUGAUGUUCUGCGUGCCU` has apparent KD of K4 kissing-loop reporter at least equal to 0.2 µM.
Completion: false

Prompt: I'd appreciate it if you could say whether GGCAGAGUGAUGUUCGCCCUUUACCUUGAUACCAGUUCAUCUCAAAACCCUUGGCAGCAAGUGUGUAAGAGCGGUAUUGGUCAAU [theeternabot_exclusion_KL_Theo_A_1] has apparent KD of K4 kissing-loop reporter at least equal to 0.2 µM.
Completion: true

Prompt: I'd appreciate it if you could say whether AAAAUAAAGCAGUCAAUCGGAGUGAUGUUCCGAGGACCGGUACGGCCGCCACUCGAGAGUCCAAAGGACUCAUGGCGAGACUGCA [#SwitchBubble 17 #K4Early] has apparent KD of K4 kissing-loop reporter at least equal to 0.2 µM.
Completion: false

Prompt: I'd appreciate it if you could say whether AACUCUCAGACAUUUGAGUGAUGUUCAGGCCGAGGACCGGUACGGCCGCCACUCGGGUCUGAGAGAGGUUAUCAAAGAUAGCCAA [Omei KL Tryp A SS A v6] has apparent KD of K4 kissing-loop reporter at least equal to 0.2 µM.
Completion: true

Prompt: I'd appreciate it if you could say whether UAUUUAAUUUUUAAUUUUUAAAUUGCUGAUACCAGAGCCAAUUGGCUCCCUUGGCAGCGGAUCGAGUGAUGUUCGUAUAAUUUAA [AK1 SS Theophylline A] has apparent KD of K4 kissing-loop reporter at least equal to 0.2 µM.
Completion: false

---

- System: MS2 coat protein
- METHOD: apparent KD of MS2 coat protein; designed switch direction (-1 OFF switch, 1 ON switch): -1; higher = weaker reporter binding
- CONDITION_DETAILS: Eterna round: R95; input ligand: microRNA oligo, concentration not stated
Here, each record is paired with measured apparent KD of MS2 coat protein data.
Express your answer as a number followed by its unit.

# SEQUENCE, apparent KD of MS2 coat protein
records = [
    ("AGUACUGACACGUCGGUGUUAGUACAAUAAGCUUGUGAAACAUGAGGAUCACCCAUGUCCUCAUAAGCUCGUCUUAU [salish99_TOv2_r3_081] (puzzle: Sensor v3, turn-off variant 2)", "659 nM"),
]

For AUUAUUUAAGUCAGGAUAUCGUAUUUAUUUAAAUACGAGAAGGGACAUGAGGAUCACCCAUGUAAUAAAUUUUA [JMFs Solution 2] (puzzle: Brourd's mod of Exclusion 4) the sequence record lists apparent KD of MS2 coat protein as 16.6 nM

For GAGUGCUGAGGAUAUACAUGAGGAUCACCCAUGUGCUUCAGCUAGGAGACUAGCAUUGGUAGAAGGUAGUACUC [LRO-Excl3-02] (puzzle: Exclusion 3) the sequence record lists apparent KD of MS2 coat protein as 10.6 nM

For CCGAAUAAGCAGGAUAUCGAAUCGGAGACGAUUCGAGAAGGGUUAACAUGAGGAUCACCCAUGUUCCUUAACGG [Mat - Exclusion 6 - Eli Mod - D79] (puzzle: Exclusion 6) the sequence record lists apparent KD of MS2 coat protein as 17.3 nM

For GUAAAGUGAGGAUAUGGUAAAGUAAUUAUUUAGUAAGUAAUCCAGAAGGCACAUGAGGAUCACCCAUGUAAAUG [Mat - Exclusion 4 - D97] (puzzle: Exclusion 4) the sequence record lists apparent KD of MS2 coat protein as 25.7 nM

For UUUUAACAUGAGGAUCACCCAUGUGAGGAUAUGGUUUUUUUUUUUUUUUUUUUUUUUUCCAGAAGGCACAUUUU [My solution] (puzzle: Exclusion 1) the sequence record lists apparent KD of MS2 coat protein as 13.7 nM

For UUUUAACAUGAGGAUCACCCAUGUGAGGAUAUCGAAAUUUAUAUUAAUAUUAAUAAAUCGAGAAGGCACAUUUU [JMF 20] (puzzle: Exclusion 1) the sequence record lists apparent KD of MS2 coat protein as 109 nM

For AAGAUGUUAGGAUAUCGAAGGUUGUGGCAGGCGGGAAUUUGCGAGAAGGAACAUGAGGAUCACCCAUGUGAAAU [JR_Exclu4_Sub043] (puzzle: Exclusion 4) the sequence record lists apparent KD of MS2 coat protein as 19.7 nM

For UUUAUGUCAGGAUAUGAUUAGAUCUACUUUUGUAGAUCUAAUCAGAAGGGACAUGAGGAUCACCCAUGUAGUUU [Ex4 - 3 - 14] (puzzle: Exclusion 4) the sequence record lists apparent KD of MS2 coat protein as 116 nM

For AAGUACCGUCACGAUAGUGAUGGUACAACAGGUAAAUGUACAUGAGGAUCACCCAUGUCCUCUUUUGCUCGUCUUAU [Sensor 3 - 93] (puzzle: Sensor v3, turn-off variant 2) the sequence record lists apparent KD of MS2 coat protein as 36.2 nM

For AAAAAACAAGGAUAUACGAAGGAGGGUUGUCUUAAUUUUUGACAUGAGGAUCACCCAUGUAGAAGGUGUUAAAA [JR_Exclusion2_Sub012] (puzzle: Exclusion 2) the sequence record lists apparent KD of MS2 coat protein as 186 nM
